assayMetric: melting point

[
  {
    "compound": "CC(=O)Nc1ccc(C(=C2CC(C)(C)CC(C)(C)C2)c2ccc(O)cc2)cc1 [Example 21]",
    "melting point": "118 to 121 °C"
  },
  {
    "compound": "CC1(C)CC(=C(c2ccc(O)cc2)c2ccc(OCCCC(=O)O)cc2)CC(C)(C)C1 [Example 84]",
    "melting point": "203 to 204 °C"
  },
  {
    "compound": "CC1(C)CC(=C(c2ccc(O)cc2)c2ccc(S(C)(=O)=O)cc2)CC(C)(C)C1 [Example 30]",
    "melting point": "149 to 150 °C"
  },
  {
    "compound": "CC1(C)CC(=C(c2ccc(O)cc2)c2ccc(-c3ccc(CO)cc3)cc2)CC(C)(C)C1 [Example 105]",
    "melting point": "222 to 223 °C"
  }
]

// next item, melting point requested
Short answer for O=C(O)COc1ccc(C(=C2CCCCCC2)c2ccc(O)cc2)cc1 [Example 68] : melting point was 170 to 171 °C
